# experimental-system: AKT1/PKBα (Homo sapiens)
# Sequence (P31749 whole entry): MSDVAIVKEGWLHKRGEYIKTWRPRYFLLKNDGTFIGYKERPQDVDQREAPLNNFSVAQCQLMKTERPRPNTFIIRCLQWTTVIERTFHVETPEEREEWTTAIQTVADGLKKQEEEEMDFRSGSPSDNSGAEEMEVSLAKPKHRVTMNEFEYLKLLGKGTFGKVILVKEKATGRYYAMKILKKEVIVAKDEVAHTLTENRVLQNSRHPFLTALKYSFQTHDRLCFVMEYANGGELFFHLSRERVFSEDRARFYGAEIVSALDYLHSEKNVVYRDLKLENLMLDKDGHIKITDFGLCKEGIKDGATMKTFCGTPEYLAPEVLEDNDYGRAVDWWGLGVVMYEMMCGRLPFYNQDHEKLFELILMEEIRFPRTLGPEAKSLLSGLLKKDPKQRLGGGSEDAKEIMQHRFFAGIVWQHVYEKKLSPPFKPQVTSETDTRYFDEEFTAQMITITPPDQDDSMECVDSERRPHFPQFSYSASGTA
# test-details: Akt1 enzyme inhibitory activity, AKT1/PKBα KinEASE FP Fluorescein Green Assay
# measurement-conditions: fluorescence polarization kit assay; read-out: Akt1 IC50 (grade)
experimental-endpoint: IC50

The cases that follow already have their IC50 on record.
| smiles-string | experimental-system | experimental-endpoint | obs-value |
| --- | --- | --- | --- |
| Cn1nccc1-c1cc(F)c(C(=O)N[C@@H]2CNCC[C@H]2c2ccc(F)c(F)c2)c(F)c1F | AKT1/PKBα (Homo sapiens) | IC50 | > 50 nM |
| Cn1ncc(Br)c1-c1ccc(C(=O)N[C@@H]2CNCC[C@H]2c2ccc(F)c(F)c2)c(F)c1 | AKT1/PKBα (Homo sapiens) | IC50 | 10 to 50 nM |
| Cn1nccc1-c1cc(F)c(C(=O)N[C@@H]2CNCC[C@H]2c2ccc(F)c(F)c2)c(C(F)(F)F)c1 | AKT1/PKBα (Homo sapiens) | IC50 | 10 to 50 nM |

Read the next record carefully.
Param readout = IC50; param system = AKT1/PKBα (Homo sapiens); param query = Cn1ncc(F)c1-c1ccc(C(=O)N[C@@H]2CNCC[C@H]2c2ccc(F)c(F)c2)c(F)c1 ; response: value 10 to 50 nM

###

# Tested on: HCT-116
# test-details: Tumour cell proliferation inhibition, MTT assay, HCT-116
# Format: cell-based, human
# measurement-conditions: 72 hours, D-malate
experimental-endpoint: IC50 (µM)
Kindly answer with a numeric value in µM, unit omitted.

Param readout = IC50; param system = HCT-116; param query = Cn1nccc1-c1ccc(C(=O)N[C@@H]2CNCC[C@H]2c2ccc(F)c(F)c2)c(F)c1 [VII-31, D-malate] ; response: value 1.52

###

# Test system: HCT-116
# test-details: Tumour cell proliferation inhibition, MTT assay, HCT-116
# Type: cell-based, human
# measurement-conditions: 72 hours, citrate
Counter-ions that a name gives are not always drawn.
experimental-endpoint: IC50 (µM)
Kindly answer with a numeric value in µM, unit omitted.

Returns the measured IC50 for the input compound. Input: Cn1nccc1-c1ccc(C(=O)N[C@@H]2CNCC[C@H]2c2ccc(F)c(F)c2)c(F)c1 [VII-37, citrate] 1.06

###

# System: HCT-116
# test-details: Tumour cell proliferation inhibition, MTT assay, HCT-116
# Assay type: cell-based, human
# measurement-conditions: 72 hours
experimental-endpoint: pIC50
# log scale: pIC50 equals minus log10 of the concentration in mol/L

Returns the measured pIC50 for the input compound. Input: Cn1nccc1-c1ccc(C(=O)N[C@@H]2CNCC[C@H]2c2ccc(F)c(F)c2)c(F)c1 5.87

###

# test-details: Oral pharmacokinetic experiment in SD rats
# Type: in vivo
# measurement-conditions: rat, in vivo, oral administration, 20 mg/kg, mean n = 3
experimental-endpoint: Tmax (h)
Kindly answer with a numeric value in h, unit omitted.

| smiles-string | obs-value |
| --- | --- |
| Cn1nccc1-c1ccc(C(=O)N[C@@H]2CNCC[C@H]2c2ccc(F)c(F)c2)c(F)c1.O=C(O)C(O)C(O)C(=O)O | 4 |

Read the next record carefully.
Returns the measured Tmax for the input molecule. Input: Cn1nccc1-c1ccc(C(=O)N[C@@H]2CNCC[C@H]2c2ccc(F)c(F)c2)c(F)c1.O=C(O)C[C@H](O)C(=O)O 1.75

Source of measurements: patent US11319300B2
